Target: BCRP (Homo sapiens, UniProt Q9UNQ0)
Sequence (Q9UNQ0 1-655): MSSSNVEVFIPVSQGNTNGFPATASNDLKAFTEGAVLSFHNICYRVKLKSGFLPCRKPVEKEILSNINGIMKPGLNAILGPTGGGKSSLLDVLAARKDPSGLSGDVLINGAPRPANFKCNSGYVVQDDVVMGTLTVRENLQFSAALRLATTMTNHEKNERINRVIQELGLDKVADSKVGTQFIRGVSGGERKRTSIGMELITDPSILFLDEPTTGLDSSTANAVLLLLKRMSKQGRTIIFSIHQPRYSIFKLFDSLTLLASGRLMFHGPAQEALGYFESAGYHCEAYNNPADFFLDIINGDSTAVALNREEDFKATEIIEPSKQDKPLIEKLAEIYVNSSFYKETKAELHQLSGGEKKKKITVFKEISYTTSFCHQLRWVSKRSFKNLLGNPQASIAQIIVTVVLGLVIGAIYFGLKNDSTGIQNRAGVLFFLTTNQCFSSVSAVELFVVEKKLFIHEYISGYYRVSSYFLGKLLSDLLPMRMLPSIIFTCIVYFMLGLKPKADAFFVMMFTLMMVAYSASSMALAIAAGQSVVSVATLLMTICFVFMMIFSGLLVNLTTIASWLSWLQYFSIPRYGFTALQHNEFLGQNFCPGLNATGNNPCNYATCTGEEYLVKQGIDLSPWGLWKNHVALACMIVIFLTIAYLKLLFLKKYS
Assay: in vitro
Conditions: Caco-2, pH 7.4, Papp AVG, IC50 determination, Caco-2, Cladribine alone, B-A
observation type: Papp B→A (×10⁻⁶ cm/s)
Number only, in ×10⁻⁶ cm/s; omit the unit.

input: I have this compound here, Nc1nc(Cl)nc2c1ncn2[C@H]1C[C@H](O)[C@@H](CO)O1 [Cladribine, cladribine] , and I need its recorded Papp B→A.
output: 14.6

---

Target: BCRP (Homo sapiens)
Test: in vitro
Details: Caco-2, pH 7.4, Papp R1, Caco-2, Cladribine alone, B-to-A
observation type: Papp B→A (×10⁻⁶ cm/s)
Number only, in ×10⁻⁶ cm/s; omit the unit.

input: I have this molecule here, Nc1nc(Cl)nc2c1ncn2[C@H]1C[C@H](O)[C@@H](CO)O1 , and I need its recorded Papp B→A.
output: 17.7

---

Biological target: BCRP (Homo sapiens, UniProt Q9UNQ0)
Assay: BCRP substrate assessment, BCRP-MDCK monolayers
Assay type: in vitro ADME
Settings: dog, pH 7.4, with Ko143 0.5 µM, BCRP-MDCK; Cladribine + 0.5 μM Ko143; B-to-A
observation type: recovery at 120 min
Reply with a number, then the unit it belongs to.

input: I have this compound here, Nc1nc(Cl)nc2c1ncn2[C@H]1C[C@H](O)[C@@H](CO)O1 [Cladribine, cladribine] , and I need its recorded recovery at 120 min.
output: 107%

---

Test: cell batch quality control, BCRP-MDCK monolayers
Type: in vitro ADME
Conditions: dog; BCRP-MDCK cell batch QC; passage 23
observation type: Papp (×10⁻⁶ cm/s)
Number only, in ×10⁻⁶ cm/s; omit the unit.

input: I have this compound here, CC(C)NCC(O)COc1cccc2ccccc12 (stereo not shown) [Propranolol] , and I need its recorded Papp.
output: 20.1

---

Molecular target: UniProtKB P20813
Sequence (P20813 whole entry): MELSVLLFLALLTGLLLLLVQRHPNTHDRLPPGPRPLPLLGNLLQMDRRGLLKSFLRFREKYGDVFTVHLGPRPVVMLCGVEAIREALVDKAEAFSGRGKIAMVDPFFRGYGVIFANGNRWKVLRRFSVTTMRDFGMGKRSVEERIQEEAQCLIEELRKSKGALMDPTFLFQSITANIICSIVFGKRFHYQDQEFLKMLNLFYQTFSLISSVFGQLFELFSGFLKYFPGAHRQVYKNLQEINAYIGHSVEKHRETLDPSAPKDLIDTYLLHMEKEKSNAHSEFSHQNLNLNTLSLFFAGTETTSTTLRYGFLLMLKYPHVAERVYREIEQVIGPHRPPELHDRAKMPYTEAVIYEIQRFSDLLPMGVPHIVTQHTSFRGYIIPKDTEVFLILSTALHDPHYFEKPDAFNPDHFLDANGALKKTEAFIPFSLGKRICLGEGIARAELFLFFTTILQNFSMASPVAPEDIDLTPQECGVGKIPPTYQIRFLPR
Assay: CYP inhibition in human liver microsomes
Type: in vitro ADME
Design: from tissue; host or cells: pooled human liver microsomes, 200 donors
Conditions: both sexes, pooled human liver microsomes, pH 7.4, HLM, 10.0 μM, read-out: % of Control Enzyme Activity
observation type: activity at 20 min, 10 µM (%)
Number only, in %; omit the unit.

input: I have this compound here, S=P(N1CC1)(N1CC1)N1CC1 , and I need its recorded activity at 20 min, 10 µM.
output: 44.3
